# Target of assay: Tyrosyl-tRNA synthetase, putative (Trypanosoma cruzi (strain CL Brener)) (UniProt Q4DSP6)
# Sequence (Q4DSP6 as listed by the source): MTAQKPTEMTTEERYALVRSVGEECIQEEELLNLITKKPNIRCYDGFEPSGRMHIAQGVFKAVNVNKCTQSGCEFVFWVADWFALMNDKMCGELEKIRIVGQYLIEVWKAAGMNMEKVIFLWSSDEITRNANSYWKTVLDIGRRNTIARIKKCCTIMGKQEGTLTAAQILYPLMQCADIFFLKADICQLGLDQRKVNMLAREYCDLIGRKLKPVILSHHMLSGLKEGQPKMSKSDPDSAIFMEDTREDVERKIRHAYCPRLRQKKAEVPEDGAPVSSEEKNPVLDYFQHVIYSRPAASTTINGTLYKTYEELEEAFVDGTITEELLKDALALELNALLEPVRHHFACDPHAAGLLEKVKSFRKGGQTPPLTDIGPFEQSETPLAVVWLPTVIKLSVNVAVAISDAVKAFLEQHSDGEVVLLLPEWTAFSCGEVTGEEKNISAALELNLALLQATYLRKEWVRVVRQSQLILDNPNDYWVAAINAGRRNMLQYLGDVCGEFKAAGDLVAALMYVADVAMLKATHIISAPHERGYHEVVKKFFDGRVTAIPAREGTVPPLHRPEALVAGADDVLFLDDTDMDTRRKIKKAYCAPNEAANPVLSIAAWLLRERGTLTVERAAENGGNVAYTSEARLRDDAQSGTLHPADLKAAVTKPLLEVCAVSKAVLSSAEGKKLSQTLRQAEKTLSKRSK
# Measurement protocol: Trypanosoma cruzi tyrosyl tRNA synthetase (TcYRS) _High Tyrosine SOP; further: in the data most compounds retested in dose-response had high values
# Assay type: functional
# Parameters: scale not given: direction of the effect not stated beside the values
# Test settings: 30 µM
Could you please report measured Percent Effect for the items listed next?
Answers are plain numbers, in %.

Before answering, review these 10 worked examples.
CN(C)S(=O)(=O)N1CCN(c2nccc(C(F)(F)F)n2)CC1    5.38
CNc1cncc(C2CCCN2Cc2ccccn2)n1 (configuration not stated)    9.68
CN1CCN(Cc2cscn2)CC(C(=O)N(C)C)C1 (configuration not stated)    8.51
Cc1nc(C2CCN(C(=O)c3ccc(=O)n(C)c3)CC2)c2sccn12    3.23
COCCN1CCN(CCCS(C)(=O)=O)CC1C (configuration not stated)    9.9
CS(=O)(=O)c1ccc(CNC(=O)N2CCC(c3ccccc3)CC2)cc1    -3.45
Cn1ccnc1CN(CCCO)C1CCCc2ccccc21 (configuration not stated)    3.19
CC1CN(CC(=O)NC(=O)NCc2ccccc2)CCO1 (configuration not stated)    2.13
O=C(c1cc[nH]n1)N1CCCC1C1CCN(Cc2ccccc2)CC1 (configuration not stated)    4.25
CNS(=O)(=O)c1cccc(C(C)NCc2nccn2C(C)C)c1 (configuration not stated)    10.9

For each entry beneath this line, provide reported Percent Effect.
1. Cc1nc(-c2ccsc2)ccc1C(=O)NCCC(=O)N1CCCC1
2. COCCC(=O)N1C[C@@H]2COC[C@]2(COCc2cccnc2)C1

1. -1.47
2. -1.06

---

# Target of assay: Tyrosyl-tRNA synthetase, putative (Trypanosoma cruzi (strain CL Brener)) (UniProt Q4DSP6)
# Measurement protocol: Trypanosoma cruzi tyrosyl tRNA synthetase (TcYRS) SOP
# Format: functional
# Design: scale not given: direction of the effect not stated beside the values
# Test settings: 30 µM
Reported property: Percent Effect (%)
Numbers only, in %.

CC(CNC(=O)Nc1cn[nH]c1)N1CCOCC1 (configuration not stated)    18.8
COc1cc(C)c(C(C)NC(=O)Nc2nnc(C)s2)cc1OC (configuration not stated)    11.1
CN1C(=O)C(c2cccnc2)CC12CCN(C(=O)c1cccn1C)CC2 (configuration not stated)    -2.5
O=c1c2sccc2nc2n1CCN(Cc1cccs1)CC2    11.7
O=C1NC2(CCN(C(=O)Cc3ccsc3)CC2)CC1c1ccncc1 (configuration not stated)    14.1
O=C(NCc1ccccc1)c1nnc2ccc(N3CCOCC3)cc2n1    7.69
Cc1ccc(C)c(C(NC(=O)C2CC2)c2cccnc2)c1 (configuration not stated)    8.97
Cc1nc(C)c(C(=O)NCCNC(=O)Cc2cccc(F)c2)s1    18.3
Cc1ccc(CNCc2nnc3n2CC(C(F)(F)F)CC3)cc1 (configuration not stated)    13.6
O=C(Cn1nc(-c2cccs2)ccc1=O)N1CCCCCC1    7.69

Need Percent Effect for each of these compounds.
1. O=C(NS(=O)(=O)c1ccccc1Cl)c1cccc2c1OCCO2
2. CN1CCCc2cc(CNC(=O)c3ccc(NC4CC4)nc3)ccc21

1. -10
2. 10.1

---

# Target of assay: Sialic acid-binding Ig-like lectin 9 (Homo sapiens) (UniProt Q9Y336)
# Sequence (Q9Y336 whole entry): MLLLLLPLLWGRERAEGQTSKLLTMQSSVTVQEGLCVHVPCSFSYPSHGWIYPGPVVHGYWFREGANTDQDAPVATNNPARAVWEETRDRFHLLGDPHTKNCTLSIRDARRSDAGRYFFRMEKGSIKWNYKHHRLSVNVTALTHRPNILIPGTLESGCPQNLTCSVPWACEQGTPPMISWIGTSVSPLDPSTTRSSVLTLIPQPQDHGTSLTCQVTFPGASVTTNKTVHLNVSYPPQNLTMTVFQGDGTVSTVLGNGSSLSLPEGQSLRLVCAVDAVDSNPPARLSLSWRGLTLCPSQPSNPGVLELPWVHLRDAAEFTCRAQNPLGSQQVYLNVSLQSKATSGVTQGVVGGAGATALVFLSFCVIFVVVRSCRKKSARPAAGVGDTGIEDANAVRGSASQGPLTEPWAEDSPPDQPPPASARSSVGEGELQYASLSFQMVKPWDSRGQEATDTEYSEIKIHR
# Measurement protocol: Hs-Siglec9 ALPHAscreen SOP 20170721
# Design: scale not given: direction of the effect not stated beside the values
# Test settings: 10 µM
Reported property: Percent Effect (%)
Answers are plain numbers, in %.

// worked examples, Percent Effect included
Cc1cnc(N)c(C(=O)C2CCN(C(=O)c3ccccc3F)CC2)c1    7.45
O=C([C@@H]1CC[C@@H]2[C@@H](CCN2Cc2cccc(F)c2)O1)N1CCCCO1    2.78
COCCN1C(=O)[C@]2(CC[C@@H]3CN(C(=O)NCC(C)C)C[C@@H]32)N=C1C    -5
COc1ccccc1CN1CCC2(CC1)CC(Oc1ccccn1)CO2 (stereo not drawn)    -9.97
Cc1ccccc1CN1CCC(NCC2CNc3ccnn3C2)CC1 (stereo not drawn)    -4.24
Cc1ccccc1C(=O)Nc1cnn(CC(=O)NC2CCCC2)c1    4.85
Cc1nc(CN2CCc3ncnc(C)c3CC2)cs1    1.66
Fc1ccc2c(c1)C(NCc1nnc3n1CCCCC3)CCCO2 (stereo not drawn)    19.3

// each listed compound needs a value for Percent Effect
1. COc1ccc(NC(=O)CNc2ccc(Br)cc2F)cc1
2. CCS(=O)(=O)N1C[C@H]2C[C@H](C(=O)N(C)C)[C@@H](C1)O2
3. COc1cccc(OCC2CCCN(C(=O)c3cnc(C)nc3O)C2)c1 (stereo not drawn)
4. Cc1cc(C)cc(C2(C(=O)N3CCCC(n4cncn4)C3)CC2)c1 (stereo not drawn)
5. CCn1c(C2CCCN(Cc3nccn3CCOC)C2)nn(C)c1=O (stereo not drawn)

2.32
0.653
13.5
-6.31
28.2

Attribution: ChEMBL document CHEMBL3988442
